# pEC50 listing for each entry below
Test system: human Pan T cells
Assay: Human Pan T cell IL-2 ELISA
Type: cell-based
Settings: Homo sapiens, T-cell, 48 h, Anti-CD3 and Anti-CD28, supernatant IL-2 ELISA, read-out: IL-2 release, EC50
Units for pEC50: none; it is -log10 of a concentration expressed in mol/L.

In the examples that follow, each entry is paired with its recorded pEC50.
Compound: CC1(C)c2cc(N3CCOC(C(C)(C)O)C3)ccc2Nc2c1cc(-c1cnc3cc(Cl)ccn13)c1c2C(=O)NC1 (centres unmarked) [Example 100]
Measure: pEC50
Endpoint result: 7.88
//
Compound: CC1(C)c2cc(N3CCOCC3)ncc2Nc2c1cc(-c1cnn3cccnc13)c1c2C(=O)NC1
Measure: pEC50
Endpoint result: 7.83
//
Compound: COc1cccc2c(-c3nc4c(c5c3CCNC5=O)Nc3ccc(N5CCOCC5)cc3C4(C)C)cnn12
Measure: pEC50
Endpoint result: 8.40

Which measured pEC50 value corresponds to CC1(C)c2cc(N3CC(CO)OCC3=O)ccc2Nc2c1cc(-c1cnn3cccnc13)c1c2C(=O)NC1 (centres unmarked) ? 7.04

Endpoint output: pEC50 of CC1(C)c2cc(-c3cnn4cccnc34)c3c(c2Nc2cc(F)c(N4CCOCC4)c(F)c21)C(=O)NC3 . Value? 7.19

Would you mind telling me what pEC50 value was observed for COc1ccc2c(-c3cc4c(c5c3CNC5=O)Nc3ccc(N5CCOC(C(C)(C)O)C5)cc3C4(C)C)cnn2c1 (single isomer, unassigned) ? 8.19

Suppose we examine the compound Cc1ccn2c(-c3cc4c(c5c(=O)[nH]ccc35)Nc3ccc(N5CCOCC5)cc3C4(C)C)cnc2c1F ; what pEC50 value has been reported? 7.97

###

Test system: human Pan T cells
Assay: Human Pan T cell IL-2 ELISA
Format: cell-based
Conditions: Homo sapiens, T-cell, 48 h, Anti-CD3 and Anti-CD28, supernatant IL-2 ELISA, read-out: IL-2 release, EC50
Each entry below carries its reported pEC50.
Give only the number. pEC50 is defined as minus log10 of concentration in molar units.

These recorded examples may help you get a feel for the data.
Molecule: CC1(C)c2cc(N3CCOCC3)ccc2Nc2c1cc(-c1cnc3n1CCCC3O)c1c2C(=O)NC1 (single isomer, unassigned) [Example 227]
Measure: pEC50
Endpoint result: 8.19

Molecule: COc1nccn2c(-c3cc4c(c5c3CNC5=O)Nc3ccc(N5C6CCC5COC6)cc3C4(C)C)cnc12 [Example 232]
Measure: pEC50
Endpoint result: 7.96

Molecule: CC1(C)c2cc(N3CCOC(CO)C3)ccc2Nc2c1cc(-c1cnn3cccnc13)c1c2C(=O)NC1 (stereo not shown) [Example 118]
Measure: pEC50
Endpoint result: 8.14

Molecule: CC1(C)c2cc(N3CCOC(C(C)(C)O)C3)ccc2Nc2c1cc(-c1cnn3cccnc13)c1c2C(=O)NC1 (stereo not shown) [Example 22]
Measure: pEC50
Endpoint result: 8.66

Molecule: CC1(C)c2cc(N3CCOCC3)ccc2Nc2c1cc(-c1cnc3cc(N4CCC4)ccn13)c1c2C(=O)NC1 [Example 206]
Measure: pEC50
Endpoint result: 7.00

Molecule: Cc1ccn2c(-c3cc4c(c5c3CNC5=O)Nc3ccc(N5CCOCC5)cc3C4(C)C)cnc2n1 [Example 185]
Measure: pEC50
Endpoint result: 8.66

Lab note: need pEC50 for COCC1(O)CCN(c2ccc3c(c2)C(C)(C)c2cc(-c4cnc5c(OC)nccn45)c4c(c2N3)C(=O)NC4)CC1 [Example 200] on human Pan T cells, anyone have it? 8.85
